- Tested on: DLD1
- Assay Name: TCF/Wnt firefly luciferase reporter signal relative to plate median (fraction of plate median); higher = higher Wnt reporter signal
- Recorded Conditions: 5 µM; treatment time 24 h; reporter: 7TFP
Test Readout: TCF/Wnt firefly luciferase reporter signal

Sample answers from the record:
CC1=CC(=O)C(C(C)C)=CC1=O | 1.09
C[C@H]1O[C@@H](O[C@H]2[C@@H](O)C[C@H](O[C@H]3[C@@H](O)C[C@H](O[C@H]4CC[C@@]5(C)[C@H](CC[C@@H]6[C@@H]5CC[C@]5(C)[C@@H](C7=CC(=O)OC7)CC[C@]65O)C4)O[C@@H]3C)O[C@@H]2C)C[C@H](O)[C@@H]1O | 0.157
CC1(C)C(=O)[C@H]2C[C@]3(O)C4=CC(=O)O[C@@H](c5ccoc5)[C@@]4(C)CCC3[C@](C)(C2=O)[C@H]1CC(=O)O (stereo partly drawn) | 1.11
CC1=C2C(O)C(=O)OC3CC4C(C)(C)C(=O)C=C[C@]4(C)C(CC1)[C@]23C (stereo partly drawn) | 1.01
CC(=O)OCC(=O)[C@@]1(O)[C@H](C)C[C@H]2[C@@H]3CCC4=CC(=O)C=C[C@]4(C)[C@@]3(F)[C@@H](O)C[C@@]21C | 0.958
NC(=O)c1ccccc1O | 0.993
O=C(O)c1cc(=O)c2c(OCC(O)COc3cccc4oc(C(=O)O)cc(=O)c34)cccc2o1 | 0.902

Next up:
Provide TCF/Wnt firefly luciferase reporter signal value for the following molecule: O=C1c2c(O)ccc(O)c2C(=O)c2c(NCCNCCO)ccc(NCCNCCO)c21 0.936

###

# maps each entry to its cell viability
- Tested on: DLD1
- Assay Name: cell viability (CellTiter-Glo) relative to plate median (fraction of plate median); higher = more viable cells
- Recorded Conditions: 5 µM; treatment time 24 h; reporter: 7TFP
Please reply with the number alone, leaving off any unit.

Past entries and their recorded results:
C[N+]1(C)C[C@H](O)C[C@H]1C(=O)[O-] | 1.03
CCOc1ccc(NC(C)=O)cc1 | 0.956
CC(=O)Oc1ccc2c(c1OC(C)=O)OCC1(O)Cc3c(cc(OC(C)=O)c(OC(C)=O)c3OC(C)=O)C21 (configuration not stated) | 0.96
OCCN1CCN(CCCN2c3ccccc3Sc3ccc(Cl)cc32)CC1 | 0.891
O=C(O)P(=O)(O)O | 1.06

Please report the measured cell viability for CO[C@H]1O[C@H](CO)C(O[C@@H]2OC(C(=O)O)[C@@H](O[C@H]3O[C@H](COS(=O)(=O)O)C(O[C@@H]4OC(C(=O)O)[C@@H](O[C@H]5O[C@H](CO)C(O[C@@H]6OC(C(=O)O)[C@@H](O[C@H]7O[C@H](COS(=O)(=O)O)C(O[C@@H]8OC(C(=O)O)=C[C@H](O)C8OS(=O)(=O)O)[C@H](O)[C@H]7NC(C)=O)[C@H](O)[C@H]6O)[C@H](O)[C@H]5NC(C)=O)[C@H](O)[C@H]4O)[C@H](O)[C@H]3NC(C)=O)[C@H](O)[C@H]2O)[C@H](O)[C@H]1NC(C)=O (some centres not stated) 0.988

Provide only the value of recorded cell viability for NC(=O)CC[C@H](N)C(=O)O 1.02

Name the recorded cell viability of the item COc1cc(-c2oc3cc(O)ccc3c(=O)c2O)ccc1O in your answer. 1.03

// fetch cell viability given entry CCCC(=O)O[C@]1(C(=O)CO)CC[C@H]2[C@@H]3CCC4=CC(=O)CC[C@]4(C)[C@H]3[C@@H](O)C[C@@]21C 0.965

###

- Tested on: SW480
- Assay Name: TCF/Wnt firefly luciferase reporter signal relative to plate median (fraction of plate median); higher = higher Wnt reporter signal
- Recorded Conditions: 5 µM; treatment time 24 h; reporter: 7TFP
Test Readout: TCF/Wnt firefly luciferase reporter signal
I only need the number, thanks.

CC(=O)CC(c1ccccc1)c1c(O)c2ccccc2oc1=O (stereo not drawn) | 1.12
CCn1cc(C(=O)O)c(=O)c2cc(F)c(N3CCNC(C)C3)c(F)c21 (stereo not drawn) | 0.997
CC[C@H]1OC(=O)[C@H](C)[C@@H](O[C@H]2C[C@@](C)(OC)[C@@H](O)[C@H](C)O2)[C@H](C)[C@@H](O[C@@H]2O[C@H](C)C[C@H](N(C)C)[C@H]2O)[C@](C)(O)C[C@@H](C)/C(=N\OCOCCOC)[C@H](C)[C@@H](O)[C@]1(C)O | 1.03
C[C@]12C=CC(=O)C=C1CC[C@H]1[C@@H]3C[C@@H](O)[C@](O)(C(=O)CO)[C@@]3(C)C[C@H](O)[C@@]12F | 0.89
O=c1cc(-c2cc(O)c(O)c(O)c2)oc2cc(O)cc(O)c12 | 0.952
CCCCOc1ccc(C(=O)CCN2CCCCC2)cc1 | 1.17
Cc1onc(-c2ccccc2)c1C(=O)N[C@@H]1C(=O)N2[C@@H]1SC(C)(C)[C@@H]2C(=O)O | 1.11

Retrieve TCF/Wnt firefly luciferase reporter signal measured for C[N+](C)(C)CC(=O)O and print it. 0.921

###

- Tested on: DLD1
- Assay Name: cell viability (CellTiter-Glo) relative to plate median (fraction of plate median); higher = more viable cells
- Recorded Conditions: 5 µM; treatment time 24 h; reporter: 7TFP
Below, each entry is listed with its recorded cell viability.
Give the value as a plain number.

Below are worked cases with known answers.
O=C(Nc1ccc(C(=O)O)c(O)c1)c1ccccc1 | 1.06
CC1=C(CCC(=O)O)c2cc3nc(cc4[nH]c(cc5[nH]c(cc1n2)c(C)c5C(C)O)c(C)c4C(C)O)C(C)=C3CCC(=O)O (centres undefined) | 1.01
CCCCCCCCCCCCCCCC(=O)OC[C@@H](NC(=O)C(Cl)Cl)[C@H](O)c1ccc([N+](=O)[O-])cc1 | 0.96

Please find the next compound below.
Give DLD1 cell viability for the following compound: CC1(C)C=CC(=O)[C@@]2(C)C1CC(=O)[C@]1(C)C2CC[C@@]2(C)[C@H](c3ccoc3)OC(=O)C3OC321 (some centres undefined) 1

###

- System: DLD1
- Assay Name: TCF/Wnt firefly luciferase reporter signal relative to plate median (fraction of plate median); higher = higher Wnt reporter signal
- Recorded Conditions: 5 µM; treatment time 24 h; reporter: 7TFP
Binary classification by TCF/Wnt firefly luciferase reporter signal, with 1 as an inclusive lower bound for rule met; all other cases are rule not met.

O=C1CC2(CCCC2)CC(=O)N1CCCCN1CCN(c2ncccn2)CC1 | rule met
C#C[C@]1(OC(C)=O)CC[C@H]2[C@@H]3CCC4=CC(=O)CC[C@@H]4[C@H]3CC[C@@]21C | rule not met
CCC(Cc1c(I)cc(I)c(N)c1I)C(=O)O (stereo not given) | rule met
COC(=O)C[C@H]1C(C)(C)C(=O)[C@@H]2CC3C4=CC(=O)O[C@@H](c5ccoc5)[C@]4(C)CC[C@@H]3[C@@]1(C)C2=O (stereo not given in full) | rule met
O=C(O)c1cc2ccccc2[nH]1 [Indol-2-carboxylic acid] | rule not met

API: above_or_equal(metric=TCF/Wnt firefly luciferase reporter signal, cutoff=1) for item COc1cc2c(cc1OC)-c1cc3ccc(OC)c(OC)c3c[n+]1CC2 rule met

Check the entry C=C[C@@]1(C)CC(=O)[C@@]2(O)[C@](C)(O1)[C@@H](O)[C@@H](O)C1C(C)(C)CC[C@H](O)[C@@]12C (stereo not given in full) : does TCF/Wnt firefly luciferase reporter signal equal or exceed 1? rule not met

###

- Test system: SW480
- Assay Name: cell viability (CellTiter-Glo) relative to plate median (fraction of plate median); higher = more viable cells
- Recorded Conditions: 5 µM; treatment time 24 h; reporter: 7TFP
Assign labels as follows, please: yes (1) for cell viability below 1; no (0) for cell viability equal to or exceeding 1.

CC(CN(C)C)CN1c2ccccc2CCc2ccccc21 (stereo unspecified) | no (0)
O=C1[C@@H]2CCCN2C(=O)[C@@H]2CCCN12 | yes (1)
C=CC1=C(C)c2cc3[nH]c(cc4nc(cc5[nH]c(cc1n2)c(C)c5CCC(=O)O)C(CCC(=O)O)=C4C)c(C)c3C=C | yes (1)
O=c1[nH]cnc2nc[nH]c12 | yes (1)
CC(=O)Oc1cc(C)c2c(c1C(OC(C)=O)OC(C)=O)Oc1c(c(C)c(OC(C)=O)c3c1C(OC(C)=O)OC3=O)OC2=O (stereo unspecified) | yes (1)
CCOC(=O)c1c(C)cc(O)cc1O | no (0)

Consider the record given below.
Please check: cell viability for O=C([O-])c1ccccc1O.[Na+] , strictly under 1 or not? no (0)

###

- System: DLD1
- Assay Name: TCF/Wnt firefly luciferase reporter signal relative to plate median (fraction of plate median); higher = higher Wnt reporter signal
- Recorded Conditions: 5 µM; treatment time 24 h; reporter: 7TFP
Mark No for TCF/Wnt firefly luciferase reporter signal values under 1, and Yes for everything at or above.

Here are 5 compounds together with their reported answers.
O=C1c2ccccc2C(=O)c2c1ccc(O)c2O | Yes
C[C@](N)(Cc1ccc(O)c(O)c1)C(=O)O | Yes
CC(=O)OC1CCC2(C)C3=C(CC[C@H]2C1(C)C)[C@@]1(C)CC[C@@H]([C@@H](C)CCC=C(C)C)[C@]1(C)CC3 (stereo not given in full) | Yes
COc1cccc2c1C(=O)c1c(O)c3c(c(O)c1C2=O)C[C@@](O)(C(=O)CO)C[C@@H]3O[C@H]1C[C@H](N)[C@H](O)[C@H](C)O1 | Yes
O=c1c(O)c(-c2ccc(O)cc2)oc2ccccc12 | Yes

Please indicate if the recorded TCF/Wnt firefly luciferase reporter signal for C[C@@]12C[C@@]3(O)O[C@@H](O1)[C@]1(COC(=O)c4ccccc4)[C@H]3C[C@@]12O[C@@H]1O[C@H](CO)[C@@H](O)[C@H](O)[C@H]1O meets or exceeds 1. No

# check: TCF/Wnt firefly luciferase reporter signal of CC(=O)N1CCN(c2ccc(OCC3COC(Cn4ccnc4)(c4ccc(Cl)cc4Cl)O3)cc2)CC1 (stereo not given) is greater than or equal to 1 Yes

Identify whether the reported TCF/Wnt firefly luciferase reporter signal of the following compound is 1 or greater: O=c1cc(-c2ccc(O)cc2)oc2cc(O)ccc12 No

Entry Cc1ccc2c(Cl)cc(Cl)c(O)c2n1 : is its TCF/Wnt firefly luciferase reporter signal no less than 1? Yes

Identify whether the reported TCF/Wnt firefly luciferase reporter signal of the following compound is 1 or greater: CC(C)[C@H](NC(=O)[C@@H]1CCCN1)C(=O)N1CCNC(=O)C1=O No
